Assay: qHTS assay to identify small molecule agonists of the progesterone receptor (PR) signaling pathway - cell viability counter screen (AID 1346799); further: nearly all actives have a fitted effect of over 45% in size
Settings: PR-UAS-bla HEK293T viability, CellTiter-Glo luminescence, 16 h; series mostly up to 92.4 µM
Results filed as inconclusive are left out. The source made the active and inactive calls. The call rests on the fitted dose curve.
Reply using exactly one outcome from active, inactive

[
  {
    "molecule": "NC(=O)CC[C@@H]1NC(=O)[C@H](Cc2ccccc2)NC(=O)[C@H](Cc2ccc(O)cc2)NC(=O)CCSSC[C@@H](C(=O)N2CCC[C@H]2C(=O)N[C@@H](CCCN=C(N)N)C(=O)NCC(N)=O)NC(=O)[C@H](CC(N)=O)NC1=O",
    "class": "inactive"
  },
  {
    "molecule": "O=C1c2c(O)ccc(Nc3ccc(CCO)cc3)c2C(=O)c2c([N+](=O)[O-])ccc(O)c21",
    "class": "inactive"
  }
]

Qu. Recorded test call requested for COC(=O)C1=C(C)NC(C)=C(C(=O)OCCc2ccc(N3CCN(C(c4ccccc4)c4ccccc4)CC3)cc2)C1c1cccc([N+](=O)[O-])c1 (configuration not stated)
Ans. inactive

Qu. # lookup: test call for CCCCCCCCCCCCCCCS(=O)(=O)Oc1ccccc1
Ans. inactive

Qu. Could you check what this test reported for O=C(O)c1c(Cl)cccc1Cl ?
Ans. inactive

Qu. Query: recorded result category for O=C1c2ccccc2Cc2ccccc21 in this test
Ans. inactive

Qu. Hi, do you know how Oc1cccc2cc3cccc(O)c3c(O)c12 came out in this test?
Ans. inactive

====

Assay: qHTS assay for small molecule disruptors of the mitochondrial membrane potential (AID 720635)
Details: HepG2 mitochondrial membrane potential, Mito-MPS dye ratio; series mostly up to 83.2 µM
Results filed as inconclusive are left out. The source made the active and inactive calls. Calls follow the shape of the dose curve; as a rule, active = well fitted inhibition curve with a large enough effect in the signal ratio in the repeat runs; inconclusive = weak or mixed curves, or effect the other way; inactive = flat fitted curve, though single readings scatter; the % refers to the signal ratio.
Could you please pick one outcome from this set? active, inactive

Solved cases (10 shown):
[
  {
    "molecule": "C[C@@H]1C[C@H]2[C@@H]3CCC4=CC(=O)C=C[C@]4(C)[C@@]3(Cl)[C@@H](O)C[C@]2(C)[C@@]1(OC(=O)c1ccco1)C(=O)CCl",
    "class": "active"
  },
  {
    "molecule": "C[n+]1cc2c3c(ccc2c2ccc4cc5c(cc4c21)OCO5)OCO3",
    "class": "active"
  },
  {
    "molecule": "CCCCCCCCOC(=O)c1ccc(O)cc1",
    "class": "active"
  },
  {
    "molecule": "NC(=O)CC[C@@H]1NC(=O)[C@H](Cc2ccccc2)NC(=O)[C@H](Cc2ccc(O)cc2)NC(=O)CCSSC[C@@H](C(=O)N2CCC[C@H]2C(=O)N[C@@H](CCCN=C(N)N)C(=O)NCC(N)=O)NC(=O)[C@H](CC(N)=O)NC1=O",
    "class": "inactive"
  },
  {
    "molecule": "CC(C)(C)CC(C)(C)c1ccc(O)c(Cc2ccc(Cl)cc2Cl)c1",
    "class": "active"
  },
  {
    "molecule": "Cc1nc(-c2ccc3c(c2)CCN(CCC2CCC(NC(=O)/C=C/c4ccc(F)cc4)CC2)CC3)no1 (stereo unspecified)",
    "class": "inactive"
  },
  {
    "molecule": "CCOc1nc2cccc(C(=O)OC(C)OC(=O)OC3CCCCC3)c2n1Cc1ccc(-c2ccccc2-c2nn[nH]n2)cc1 (stereo unspecified)",
    "class": "active"
  },
  {
    "molecule": "CC(=O)SC[C@@H](Cc1ccccc1)C(=O)NCC(=O)OCc1ccccc1",
    "class": "inactive"
  },
  {
    "molecule": "N=C1C=CC(=C(c2ccc(N)cc2)c2ccc(N)cc2)C=C1",
    "class": "active"
  },
  {
    "molecule": "O=C1C=CC(=O)N1c1ccc(Cc2ccc(N3C(=O)C=CC3=O)cc2)cc1",
    "class": "active"
  }
]

Qu. Write down the call the test reported for this molecule. Item: Cc1cc(O)c(Cl)c(C)c1Cl
Ans. active

Qu. In this assay, the call recorded for CNC(=O)c1ccccc1 was what?
Ans. inactive

Qu. Which result was noted for this molecule in the test: Clc1ccc2nsnc2c1NC1=NCCN1
Ans. inactive

Qu. I would be grateful if you could indicate the recorded call for Cc1cc(O)c(C(C)(C)C)cc1C(C)(C)C .
Ans. active

Qu. What is the recorded call for this molecule in the test? OCc1c[nH]c2ccccc12
Ans. active

Qu. // outcome(item) with item = CC1=C(C(=O)OC(C)C)C(c2cccc([N+](=O)[O-])c2)C(C(=O)OC2CN(C(c3ccccc3)c3ccccc3)C2)=C(N)N1 (stereo unspecified)
Ans. active

Qu. Please state the recorded outcome for this molecule: NNc1nc(-c2ccc(N)cc2)cs1
Ans. active

Qu. What did this assay record as the result for O=C(Nc1ccc(Oc2ccc(Cl)cc2)c(Cl)c1)c1cc(I)cc(I)c1O ?
Ans. active

Qu. Entry CCCCCCCC[P+](CCCCCCCC)(CCCCCCCC)CCCCCCCC : call = ?
Ans. active

Qu. # fetch the recorded call for NNc1nc(-c2ccccc2)cs1 here
Ans. active

Qu. // param item: CCc1cc(SCc2sc(-c3ccc(C(F)(F)F)cc3)nc2CN2CCN(c3ccc(OC)cc3)CC2)ccc1OCC(=O)O ; yields the recorded call
Ans. active
